Quick reference for z-score among some compounds
- assayProtocol: S. cerevisiae RM11-1a growth modifiers, primary screen, strain RM11-1a, OD600, basal, 24 h (AID 1177);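 also: cultures grown under basal conditions with no added stressor; test concentration not given here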
- conditionLabel: OD600, 24 h, higher = more signal, called active from +8 up or from −8 down
Note: the reply should be a number with no unit written.

Problem: I'd like to know its z-score. The compound in question is "[N-]=[N+]=NCc1ccccc1C[C@]1(C(N)=O)N=C(c2ccc(OCCCO)cc2)O[C@H]1c1ccccc1"
Solution: 1.4

Problem: Consider the compound shown here: "CC(C)(C)OC(=O)CC[C@]1(C(=O)NCc2ccccc2)N=C(c2ccc(OCCCO)cc2)O[C@H]1c1ccccc1CN=[N+]=[N-]" What is its recorded z-score?
Solution: 0.53

Problem: Which z-score value is on record for O=C1OCCC=C[C@H]2OC34C=CCN(Cn5nnc6ccccc65)C(=O)[C@H]3N(CCCCCCO)C(=O)[C@@H]4C12 (some centres undefined) ?
Solution: 0.587

Problem: Need z-score, item "C=CCOC(=O)[C@H]1[C@@H]2C(=O)O[C@@H](c3ccccc3)[C@@H](c3ccccc3)N2[C@@H](c2ccc(OCCOC(=O)[C@@H]3C[C@@H]4C(=O)N[C@@H](CCCCNC(C)=O)C(=O)N4[C@@H]3c3ccc(O)cc3)cc2)[C@]12C(=O)Nc1ccc(I)cc12"
Solution: 0.925

Problem: Which z-score reading was recorded for the compound "CO[C@]12C=C(Br)[C@@H](C[C@@H]1c1cccc(C)c1)[C@@]1(CO1)C2=O" ?
Solution: -0.338

Problem: Which z-score is listed for "C#CCN([C@@H](Cc1ccc(O)cc1)C(=O)OC)[C@@H](/C=C/C1CC1)[C@H](O)Cc1ccccc1" ?
Solution: -0.136

Problem: Fill in the blank: the reported z-score of "O[C@@H](Cc1ccccc1)[C@@H](/C=C/C1CC1)N(CC#Cc1ccccc1)Cc1cccc(Cl)c1" is ____.
Solution: 0.438

Problem: Reported z-score, compound COc1cc(OC)c(C(O)C2C=CC3C(=O)N(C)C(=O)C3N2NC(=O)OC(C)(C)C)cc1Br (centres undefined) : ____
Solution: 1.18

Problem: So what does the record say about z-score for "C=C(/C(=C/C[C@@H](OC(C)=O)c1cccc(OCCO)c1)c1cc(C(=O)OC)ccc1OC)C(C)C" ?
Solution: 0.258

Problem: Fill in the blank: the reported z-score of "O=C1O[C@H](c2ccccc2)[C@H](c2ccccc2)N2[C@H]1[C@@H](C(=O)Nc1nc3ccccc3s1)[C@]1(C(=O)Nc3ccc(C#CCCO)cc31)[C@H]2c1ccc(O)cc1" is ____.
Solution: 0.604

Problem: So what's the measured z-score for this one? "COc1ccc(CCN2C(=O)[C@@]3(Cc4ccccc42)c2ccccc2C(=O)N(Cc2ccccc2OC)[C@H]3c2ccc(CO)cc2)cc1"
Solution: -1.16

Problem: Please give the measured z-score for this compound: C=CCC(OC(C)=O)[C@@H]1[C@@H](N(Cc2cc3ccccc3o2)C(=O)c2ccc(C)cc2)c2cc(OCCCO)ccc2N1C(=O)Cc1ccc(OC)cc1 (some centres undefined)
Solution: 0.634

Problem: I'd like to know its z-score. The compound in question is "CCCNC(=O)[C@@H]1c2ccccc2C(=O)N(C(C)C)[C@H]1c1ccc(CO)cc1"
Solution: 0.846

Problem: For "COc1cc2c(cc1OC)CN(C(=O)[C@@H]1[C@H]3C(=O)O[C@H](c4ccccc4)[C@H](c4ccccc4)N3[C@H](c3ccc(OCCO)cc3)[C@@]13C(=O)Nc1ccc(C#CC4(O)CCCCCC4)cc13)CC2" , what is its reported z-score?
Solution: 2.82
